These entries and their values trace back to patent US7989497B2.

Protein target, amino acids: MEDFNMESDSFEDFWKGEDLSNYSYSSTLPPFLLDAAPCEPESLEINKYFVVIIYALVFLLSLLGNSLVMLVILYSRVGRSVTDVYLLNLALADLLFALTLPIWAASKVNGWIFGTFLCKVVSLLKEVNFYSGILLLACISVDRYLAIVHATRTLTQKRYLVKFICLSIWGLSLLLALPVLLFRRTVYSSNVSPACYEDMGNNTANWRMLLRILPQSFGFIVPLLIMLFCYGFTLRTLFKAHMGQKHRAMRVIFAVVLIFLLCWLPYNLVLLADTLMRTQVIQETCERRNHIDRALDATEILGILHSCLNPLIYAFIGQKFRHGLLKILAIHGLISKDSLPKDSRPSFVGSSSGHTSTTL
measuredEndpoint: IC50 (nM)

Recorded IC50, per entry:
CCOC[C@H](C)Nc1c(Nc2ccc(Cl)c(S(=O)(=O)N(C)OC)c2O)c(=O)c1=O; 19
CON(C)S(=O)(=O)c1c(Cl)ccc(Nc2c(N[C@H]3CCSC3)c(=O)c2=O)c1O; 26

P: CC[C@@H](Nc1c(Nc2ccc(Cl)c(S(=O)(=O)N(C)OC)c2O)c(=O)c1=O)c1ccccn1
Q: CON(C)S(=O)(=O)c1c(Cl)ccc(Nc2c(N[C@H](C)c3cnn(C)c3)c(=O)c2=O)c1O
Q. Return label of the item with the larger IC50. Candidates: P , Q . Record your answer as the label of the chosen record.
A. Q
(Q: 283 nM, P: 4 nM)
